# measurementDescription: Plasma concentration versus time of Compound I and metabolite Compound III in patients dosed QD or BID with Form B of Compound II plus fulvestrant
# Type: in vivo, human
# runParameters: human, plasma, oral, 300 mg, 300 mg QD of Form B, Day 29, […], Median; read-out: Compound I Concentration
recordedEndpoint: concentration at 24 h (ng/mL)
Response body: numeric value in ng/mL, unit text excluded.

Prompt line: Dear colleague, I am looking for the recorded concentration at 24 h of the following compound: CC(C)N1CCN(c2ccc(Nc3ncc4cc5n(c4n3)C3(CCCCC3)CNC5=O)nc2)CC1
Response line: 10.9

###

# measurementDescription: Noncompartmental pharmacokinetic parameters (Cmax, Tmax, AUC, Racc) in QD and BID cohorts of Form B
# Format: in vivo, human
# runParameters: human, plasma, oral, 200 mg, Compound I; 200 mg BID of Form B; Cohort 8; Day 29; read-out: Cmax (Mean)
recordedEndpoint: Cmax (ng/mL)
Response body: numeric value in ng/mL, unit text excluded.

Prompt line: Dear colleague, I am looking for the recorded Cmax of the following molecule: CC(C)N1CCN(c2ccc(Nc3ncc4cc5n(c4n3)C3(CCCCC3)CNC5=O)nc2)CC1 [Compound I]
Response line: 26.3

###

# measurementDescription: Plasma concentration versus time of Compound I and metabolite Compound III in patients dosed QD or BID with Form B of Compound II plus fulvestrant
# Format: in vivo, human
# runParameters: human, plasma, oral, 100 mg, Cohort 6, 100 mg BID of Form B, Day 29, 12.0 h; read-out: Compound I Concentration, Max
recordedEndpoint: concentration at 12 h (ng/mL)
Response body: numeric value in ng/mL, unit text excluded.

Prompt line: Dear colleague, I am looking for the recorded concentration at 12 h of the following compound: CC(C)N1CCN(c2ccc(Nc3ncc4cc5n(c4n3)C3(CCCCC3)CNC5=O)nc2)CC1
Response line: 10.1

###

# measurementDescription: Plasma concentration versus time of Compound I and metabolite Compound III in patients dosed QD or BID with Form B of Compound II plus fulvestrant
# Type: in vivo, human
# runParameters: human, plasma, oral, 200 mg, Cohort 8, 200 mg BID of Form B, Day 29, 12.0 h; read-out: Compound I Concentration, Min
recordedEndpoint: concentration at 12 h (ng/mL)
Response body: numeric value in ng/mL, unit text excluded.

Prompt line: Dear colleague, I am looking for the recorded concentration at 12 h of the following compound: CC(C)N1CCN(c2ccc(Nc3ncc4cc5n(c4n3)C3(CCCCC3)CNC5=O)nc2)CC1 [Compound I]
Response line: 6.32

###

# measurementDescription: Plasma concentration versus time of Compound I and metabolite Compound III in patients dosed QD or BID with Form B of Compound II plus fulvestrant
# Format: in vivo, human
# runParameters: human, plasma, oral, 400 mg, Cohort 3, 400 mg QD of Form B, Day 15; read-out: Trough Compound III Concentration, Max
recordedEndpoint: concentration at 15 day (ng/mL)
Response body: numeric value in ng/mL, unit text excluded.

Prompt line: Dear colleague, I am looking for the recorded concentration at 15 day of the following molecule: O=C1NCC2(CCCCC2)n2c1cc1cnc(Nc3ccc(N4CCNCC4)cn3)nc12
Response line: 0.665

###

# measurementDescription: Plasma concentration versus time of Compound I and metabolite Compound III in patients dosed QD or BID with Form B of Compound II plus fulvestrant
# Assay type: in vivo, human
# runParameters: human, plasma, oral, 500 mg, Cohort 4, 500 mg QD of Form B, Day 22; read-out: Trough Compound I Concentration, Median
recordedEndpoint: concentration at 22 day

Prompt line: Dear colleague, I am looking for the recorded concentration at 22 day of the following compound: CC(C)N1CCN(c2ccc(Nc3ncc4cc5n(c4n3)C3(CCCCC3)CNC5=O)nc2)CC1
Response line: 17.7 ng/mL

###

# measurementDescription: Plasma concentration versus time of Compound I and metabolite Compound III in patients dosed QD or BID with Form B of Compound II plus fulvestrant
# Format: in vivo, human
# runParameters: human, plasma, oral, 200 mg, 200 mg QD of Form B, Day 1, 4.0 h, Median; read-out: Compound I Concentration
recordedEndpoint: concentration at 4 h (ng/mL)
Response body: numeric value in ng/mL, unit text excluded.

Prompt line: Dear colleague, I am looking for the recorded concentration at 4 h of the following molecule: CC(C)N1CCN(c2ccc(Nc3ncc4cc5n(c4n3)C3(CCCCC3)CNC5=O)nc2)CC1
Response line: 27

###

# measurementDescription: Noncompartmental pharmacokinetic parameters (Cmax, Tmax, AUC, Racc) in QD and BID cohorts of Form B
# Format: in vivo, human
# runParameters: human, plasma, oral, 150 mg, Compound III; 150 mg BID of Form B; Cohort 7; Day 1; read-out: Tmax (Median)
recordedEndpoint: Tmax
Note: a bare number is incomplete; add the unit.

Prompt line: Dear colleague, I am looking for the recorded Tmax of the following compound: O=C1NCC2(CCCCC2)n2c1cc1cnc(Nc3ccc(N4CCNCC4)cn3)nc12 [Compound III]
Response line: 3 h

###

# measurementDescription: Steady-state AUC0-24,ss, (AUC0-24,ss)/dose, half-life and time to steady state: Compound I versus palbociclib, ribociclib, abemaciclib
# Assay type: in vivo, human
# runParameters: human, plasma, oral; 200 mg QD of Form B of Compound II
recordedEndpoint: half-life (h)
Response body: numeric value in h, unit text excluded.

Prompt line: Dear colleague, I am looking for the recorded half-life of the following compound: CC(C)N1CCN(c2ccc(Nc3ncc4cc5n(c4n3)C3(CCCCC3)CNC5=O)nc2)CC1
Response line: 15.2

###

# measurementDescription: Noncompartmental pharmacokinetic parameters (Cmax, Tmax, AUC, Racc) in QD and BID cohorts of Form B
# Format: in vivo, human
# runParameters: human, plasma, oral, 150 mg, Compound I; 150 mg BID of Form B; Cohort 7; Day 29; read-out: AUClast (Median)
recordedEndpoint: AUC(0-t) (ng·h/mL)
Response body: numeric value in ng·h/mL, unit text excluded.

Prompt line: Dear colleague, I am looking for the recorded AUC(0-t) of the following compound: CC(C)N1CCN(c2ccc(Nc3ncc4cc5n(c4n3)C3(CCCCC3)CNC5=O)nc2)CC1 [Compound I]
Response line: 334

###

# measurementDescription: Plasma concentration versus time of Compound I and metabolite Compound III in patients dosed QD or BID with Form B of Compound II plus fulvestrant
# Format: in vivo, human
# runParameters: human, plasma, oral, 650 mg, Cohort 5, 650 mg QD of Form B, Day 29, 2.0 h; read-out: Compound III Concentration, Median
recordedEndpoint: concentration at 2 h (ng/mL)
Response body: numeric value in ng/mL, unit text excluded.

Prompt line: Dear colleague, I am looking for the recorded concentration at 2 h of the following molecule: O=C1NCC2(CCCCC2)n2c1cc1cnc(Nc3ccc(N4CCNCC4)cn3)nc12
Response line: 3.14

###

# measurementDescription: Plasma concentration versus time of Compound I and metabolite Compound III in patients dosed QD or BID with Form B of Compound II plus fulvestrant
# Assay type: in vivo, human
# runParameters: human, plasma, oral, 150 mg, Cohort 7, 150 mg BID of Form B, Day 29, 2.0 h; read-out: Compound I Concentration, Median
recordedEndpoint: concentration at 2 h (ng/mL)
Response body: numeric value in ng/mL, unit text excluded.

Prompt line: Dear colleague, I am looking for the recorded concentration at 2 h of the following compound: CC(C)N1CCN(c2ccc(Nc3ncc4cc5n(c4n3)C3(CCCCC3)CNC5=O)nc2)CC1
Response line: 34.3

###

# measurementDescription: Noncompartmental pharmacokinetic parameters (Cmax, Tmax, AUC, Racc) in QD and BID cohorts of Form B
# Assay type: in vivo, human
# runParameters: human, plasma, oral, 650 mg, Cohort 5, 650 mg QD of Form B, Day 1; read-out: AUClast, Mean
recordedEndpoint: AUC(0-t) (ng·h/mL)
Response body: numeric value in ng·h/mL, unit text excluded.

Prompt line: Dear colleague, I am looking for the recorded AUC(0-t) of the following compound: CC(C)N1CCN(c2ccc(Nc3ncc4cc5n(c4n3)C3(CCCCC3)CNC5=O)nc2)CC1
Response line: 799

###

# measurementDescription: Noncompartmental pharmacokinetic parameters (Cmax, Tmax, AUC, Racc) in QD and BID cohorts of Form B
# Format: in vivo, human
# runParameters: human, plasma, oral, 100 mg, Cohort 6, 100 mg BID of Form B, Day 1; read-out: Tmax, Mean
recordedEndpoint: Tmax
Note: a bare number is incomplete; add the unit.

Prompt line: Dear colleague, I am looking for the recorded Tmax of the following compound: CC(C)N1CCN(c2ccc(Nc3ncc4cc5n(c4n3)C3(CCCCC3)CNC5=O)nc2)CC1
Response line: 3.17 h

###

# measurementDescription: Noncompartmental pharmacokinetic parameters (Cmax, Tmax, AUC, Racc) in QD and BID cohorts of Form B
# Type: in vivo, human
# runParameters: human, plasma, oral, 500 mg, Compound I; 500 mg QD of Form B; Cohort 4; Day 29; read-out: Tmax (Mean)
# Protocol: Analysis of plasma concentration versus time data for calculation of standard pharmacokinetic (PK) parameters following oral administration was conducted using Phoenix WinNonlin version 6.3 using actual blood sampling times. […]
recordedEndpoint: Tmax (h)
Response body: numeric value in h, unit text excluded.

Prompt line: Dear colleague, I am looking for the recorded Tmax of the following molecule: CC(C)N1CCN(c2ccc(Nc3ncc4cc5n(c4n3)C3(CCCCC3)CNC5=O)nc2)CC1
Response line: 5.33
